src = PubChem BioAssay AID2546

Experiment: VP16 counterscreen qHTS for inhibitors of ROR gamma transcriptional activity;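 further: Gal4-VP16 expression switched on by copper sulfate through the metallothionein promoter; nearly all actives have a fitted effect of over 50% in size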
Conditions: Drosophila S2 Gal4-VP16 UAS-luciferase, luminescence, 20 h; series mostly up to 53.6 µM
The campaign covered roughly 310,000 compounds. About 11,000 (3.5%) were called active. Roughly 8% stayed inconclusive and do not appear here. The call rests on the fitted dose curve; in most records, active means well fitted inhibition curve with a large enough effect; inconclusive means small, poorly fitted or top-dose-only effect, or effect the other way; inactive means flat fitted curve, though single readings scatter. What follows is part of a selection rich in actives, with near analogues and random picks from the rest.
Possible outcomes: Y = active, N = inactive

[[record]]
molecule = "Clc1ccc(-c2cc(-c3ccccn3)on2)c(Cl)c1"
label_class = "Y"

[[record]]
molecule = "COC(=O)C1(O)CC(C(C)C)=NN1C(=O)c1ccc(Cl)cc1 (stereo unspecified)"
label_class = "N"

[[record]]
molecule = "O=C(c1ccc(Cl)cc1)N1N=C(c2ccccn2)CC1(O)C(F)(F)F (stereo unspecified)"
label_class = "Y"

[[record]]
molecule = "COc1ccc(C(=O)NC2CCCc3c2cnn3-c2cccc(C)c2C)c(OC)n1 (stereo unspecified)"
label_class = "Y"

[[record]]
molecule = "COc1ccccc1/C=N/N1CCN(Cc2ccccc2Cl)CC1"
label_class = "N"

[[record]]
molecule = "CCOc1cc(/C=C(/C#N)c2ccc(Cl)cc2)cc(Cl)c1OCC(=O)O"
label_class = "Y"

[[record]]
molecule = "O=C(NCc1ccccn1)c1cc(-c2ccccc2Cl)on1"
label_class = "N"

[[record]]
molecule = "Cc1ccc(C(=O)CCC(=O)N(C)CC(=O)Nc2c(Cl)cccc2Cl)cc1"
label_class = "N"

[[record]]
molecule = "C/C(=N\\OCC(=O)O)c1ccc(Cl)cc1"
label_class = "N"

[[record]]
molecule = "Cc1csc(NC(=O)CSc2nnc(-c3cccnc3)o2)n1"
label_class = "N"

[[record]]
molecule = "CC(=O)Nc1ccc(S(=O)(=O)NC2Cc3ccccc3C2)cc1"
label_class = "N"


###

Test: VP16 counterscreen qHTS for inhibitors of ROR gamma transcriptional activity;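 further: Gal4-VP16 expression switched on by copper sulfate through the metallothionein promoter; nearly all actives have a fitted effect of over 50% in size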
Conditions: Drosophila S2 Gal4-VP16 UAS-luciferase, luminescence, 20 h; series mostly up to 53.6 µM
The campaign covered roughly 310,000 compounds. About 11,000 (3.5%) were called active. Roughly 8% stayed inconclusive and do not appear here. Calls come from the whole dose curve; as a rule, active = well fitted inhibition curve with a large enough effect; inconclusive = small, poorly fitted or top-dose-only effect, or effect the other way; inactive = flat fitted curve, though single readings scatter. Many of the other results were omitted from the sample, so actives are more common in it than they were.
Possible outcomes: yes for active, no for inactive

[[record]]
compound = "COc1ccc(OCc2cc(C(=O)NCC3(C)COC3)no2)c(Cl)c1"
label_class = "no"

[[record]]
compound = "Cc1cc(C)nc(-n2nc(C)cc2NC(=O)c2ccc(F)cc2F)n1"
label_class = "yes"

[[record]]
compound = "COc1nnc(-c2ccc(C)c(S(=O)(=O)N(C)C)c2)c2ccccc12"
label_class = "no"

[[record]]
compound = "CN(C)CCCN(C(=O)c1ccc(S(=O)(=O)N2CCCCCC2)cc1)c1nc2ccc(Br)cc2s1"
label_class = "yes"

[[record]]
compound = "CC(=O)N/C(=N/c1nc(C)cc(C)n1)Nc1ccc(F)cc1F"
label_class = "no"

[[record]]
compound = "Cc1ccc2nc(N(CCN(C)C)C(=O)C3=COCCO3)sc2c1"
label_class = "no"

[[record]]
compound = "COc1cc(NC(=S)NCCSc2ccc(C)cc2)cc(OC)c1"
label_class = "yes"

[[record]]
compound = "Cc1ncoc1C(=O)N1CCCC(C(=O)c2ccc3c4c(cccc24)CC3)C1 (stereo not given)"
label_class = "no"

[[record]]
compound = "Cc1cc(N/C=C\\C(=O)c2ccc(Cl)c(Cl)c2)no1"
label_class = "no"

[[record]]
compound = "COc1ccc(C(=O)/C=C/Nc2ccccn2)cc1"
label_class = "yes"

[[record]]
compound = "CCNC(=O)CCc1nc(-c2ccc(C(C)(C)C)cc2)no1"
label_class = "yes"

[[record]]
compound = "O=C(Nc1ccc(N2CCCC2=O)cc1)c1cncc(Br)c1"
label_class = "no"

[[record]]
compound = "CCC(=O)c1ccc(OCC(=O)Nc2ccc3nc(C)sc3c2)cc1"
label_class = "no"

[[record]]
compound = "O=c1[nH]cccc1-c1nc2ccccc2n1Cc1ccc(Cl)cc1"
label_class = "no"

[[record]]
compound = "Cc1ccc(Cn2c(C)c3cnn(CC(=O)NCc4ccccn4)c(=O)c3c2C)cc1"
label_class = "no"

[[record]]
compound = "Cc1ccc(OCC(=O)NC(C)c2ccccc2)cc1C (stereo not given)"
label_class = "no"

[[record]]
compound = "COc1cc(NC(=O)Nc2ccc(C)cc2)cc([N+](=O)[O-])c1"
label_class = "no"

[[record]]
compound = "CSc1ncc(C(=O)NCCCc2ccccc2)c(C)n1"
label_class = "no"

[[record]]
compound = "NC(=O)C(=O)N/N=C/c1ccc([N+](=O)[O-])o1"
label_class = "yes"

[[record]]
compound = "Cc1cc(C(=O)NC2CC(C)(C)Cc3c2cnn3-c2ccccc2)n[nH]1 (stereo not given)"
label_class = "no"

[[record]]
compound = "CN1CCN(C(=O)CCc2nc(-c3ccc(Cl)cc3)no2)CC1"
label_class = "no"

[[record]]
compound = "Cc1ccc(C(=O)NC23CC4CC(CC(C4)C2)C3)c(Cl)c1"
label_class = "no"

[[record]]
compound = "COc1ccc(NC(=O)Nc2cccc3cccnc23)cc1"
label_class = "no"

[[record]]
compound = "CC(=O)N(CCCN(C)C)c1nc2ccc(C)cc2s1"
label_class = "no"

[[record]]
compound = "COc1ccc(C(=O)NCC(=O)N/N=C/c2ccc([N+](=O)[O-])o2)cc1OC"
label_class = "no"

[[record]]
compound = "COc1ccc(CN2C3CCCC2CC(NC(=O)c2cccc(F)c2)C3)cc1 (stereo not given)"
label_class = "no"

[[record]]
compound = "O=C(NCC(=O)N1CCN(c2ncc(C(F)(F)F)cc2Cl)CC1)c1ccc(Br)o1"
label_class = "no"

[[record]]
compound = "Cc1ccc(OCC(=O)Nn2cnc3ccccc32)cc1"
label_class = "no"

[[record]]
compound = "COc1ccccc1CCNS(=O)(=O)c1cc2c3c(c1)C(C)C(=O)N3CCC2 (stereo not given)"
label_class = "no"

[[record]]
compound = "COc1ccc2nc(NC(=O)NC3CCCCC3)sc2c1"
label_class = "no"

[[record]]
compound = "Cc1ccc(/C=N/NC(=O)c2cc3ccccc3cc2O)o1"
label_class = "yes"

[[record]]
compound = "COc1cccc(C(=O)NCCSc2ccc(Br)cc2)c1"
label_class = "no"

[[record]]
compound = "COc1ccc(OC)c(Nc2nc(-c3ccc(O)c(O)c3)cs2)c1"
label_class = "yes"

[[record]]
compound = "O=S(=O)(c1ccc(Cl)cc1)c1nc(-c2ccco2)oc1N1CCCCC1"
label_class = "no"

[[record]]
compound = "COc1ccc(C(=O)Nc2ccccc2C(=O)N2CCN(c3ccccc3)CC2)cc1"
label_class = "no"

[[record]]
compound = "COc1ccc2nc(Nc3nc4ccc(NC(C)=O)cc4s3)sc2c1"
label_class = "yes"

[[record]]
compound = "COc1cc(NC(=O)c2ccccc2)c(OC)cc1NC(=O)Cc1ccccc1"
label_class = "no"

[[record]]
compound = "CCNC(=O)CCc1nc(-c2ccc(C)cc2)no1"
label_class = "no"

[[record]]
compound = "Cc1cc(-c2ccc(C)c(S(=O)(=O)NCCCN(Cc3ccccc3)C(C)C)c2)on1"
label_class = "no"

[[record]]
compound = "CCN(CC)CCN(C(=O)c1ccc(S(=O)(=O)N2CCOCC2)cc1)c1nc2cc3c(cc2s1)OCCO3"
label_class = "no"

[[record]]
compound = "COc1ccc(-c2csc(NC(=O)c3ccc(N4C(=O)CCC4=O)cc3)n2)cc1OC"
label_class = "no"

[[record]]
compound = "CC(=O)c1ccc(NC(=O)c2sc3nc4n(c(=O)c3c2C)CCCCC4)cc1"
label_class = "no"

[[record]]
compound = "COc1ccc(-c2csc(Nc3ccc(O)cc3)n2)cc1"
label_class = "yes"

[[record]]
compound = "O=C1CCN(CCCc2ccccc2)CCN1CCO"
label_class = "no"

[[record]]
compound = "CCn1c(SCC(=O)Nc2ccc(Br)cc2)nc2sc3c(c2c1=O)CCN(C)C3"
label_class = "no"

